The entries below are paired with their reported mean nematode size ln(EXT) (ln).
test system: Caenorhabditis elegans N2; test: mean nematode size ln(EXT) after 48 h, plate-adjusted (DMSO control set to 6) (ln(EXT), control-adjusted); higher = larger nematodes / less growth inhibition; conditions: 0.5 µM; exposure time 48 h
Please give only the number in your answer, with no unit.

These recorded examples may help you get a feel for the data.
[[record]]
compound = "CC(C)(c1ccc(O)cc1)c1ccc(O)cc1"
recorded_number = 5.83

[[record]]
compound = "CCCCOC(=O)c1ccccc1C(=O)OCc1ccccc1 [Butyl benzyl phthalate]"
recorded_number = 5.93


(Q) # get_value(readout='mean nematode size ln(EXT) (ln)', item= CN(C)C(=O)Nc1ccc(Cl)cc1 )
(A) 5.99

(Q) Also, C[C@]12CCC(=O)C=C1CC[C@@H]1[C@@H]2CC[C@]2(C)C(=O)CC[C@@H]12 please.
(A) 5.85

(Q) Also, Cc1c(-c2cccnc2)c2ccccc2n1CCCCC(=O)O [5-[2-methyl-3-(pyridin-3-yl)-1H-indol-1-yl]pentanoic acid] please.
(A) 5.93

(Q) And for CO[C@@H]1COCC[C@@H]1N[C@@H]1CC[C@@](C(=O)N2CCc3ncc(C(F)(F)F)cc3C2)(C(C)C)C1 ?
(A) 5.89

(Q) Try this compound too: CCO/N=C(\CC)C1=C(O)CC(c2c(C)cc(C)cc2C)CC1=O (centres undefined)
(A) 5.85

(Q) Let us now turn to Oc1ccccc1-c1ccccc1
(A) 5.84

(Q) Now give it for C1CCC(SSC2CCCCC2)CC1 [Dicyclohexyl disulfide] too.
(A) 5.76

* * *

tested on: Caenorhabditis elegans N2; assay: mean nematode size ln(EXT) after 48 h, plate-adjusted (DMSO control set to 6) (ln(EXT), control-adjusted); higher = larger nematodes / less growth inhibition; conditions: 50 µM; exposure time 48 h
The entries below come with measured mean nematode size ln(EXT) (ln) values attached.
# answer = number (no unit)

Sample answers from the record:
[[record]]
compound = "CC(C)(C)C(O)(CCc1ccc(Cl)cc1)Cn1cncn1 (centres undefined) [Tebuconazole]"
outcome_measure = "mean nematode size ln(EXT) (ln)"
recorded_number = 5.26

[[record]]
compound = "O=NO [Sodium nitrite]"
outcome_measure = "mean nematode size ln(EXT) (ln)"
recorded_number = 6.08

[[record]]
compound = "CCOP(=S)(OCC)Oc1nc(Cl)n(C(C)C)n1 [Isazofos]"
outcome_measure = "mean nematode size ln(EXT) (ln)"
recorded_number = 3.8


(Q) Param readout= mean nematode size ln(EXT) (ln); system= Caenorhabditis elegans N2; entry= CCCCCCCCCC[N+](C)(C)CCCCCCCCCC [Didecyl dimethyl ammonium chloride] ; returns value.
(A) 3.71

* * *

system: Caenorhabditis elegans N2; experiment: mean nematode size ln(EXT) after 48 h, plate-adjusted (DMSO control set to 6) (ln(EXT), control-adjusted); higher = larger nematodes / less growth inhibition; settings: 5 µM; exposure time 48 h
outcome_measure: mean nematode size ln(EXT) (ln)
Just the number.

[[record]]
compound = "O=c1[nH]cnc2c1ncn2[C@H]1CC[C@@H](CO)O1 [Didanosine]"
recorded_number = 5.85

[[record]]
compound = "O=C1CN(/N=C/c2ccc([N+](=O)[O-])o2)C(=O)N1 [Nitrofurantoin]"
recorded_number = 5.88


(Q) I am curious: what mean nematode size ln(EXT) (ln) value has been reported for CCCCOCCO [2-Butoxyethanol] ?
(A) 5.92

(Q) What about this compound? C=C(C)C(=O)OCCC(F)(F)C(F)(F)C(F)(F)C(F)(F)C(F)(F)C(F)(F)F [3,3,4,4,5,5,6,6,7,7,8,8,8-Tridecafluorooctyl methacrylate]
(A) 5.84

(Q) Follow-up item: CCCOC(=O)c1ccc(C(=O)OCCC)nc1 [2,5-Pyridinedicarboxylic acid, dipropyl ester]
(A) 5.98

(Q) Moving on to O=C(O)C1(C(=O)Nc2ccc(Cl)cc2Cl)CC1 [Cyclanilide]
(A) 6.18

(Q) And for c1ccc2c(c1)Nc1ccccc1S2 [Phenothiazine] ?
(A) 5.92

(Q) Continue with COc1cc(C=O)ccc1O [4-Hydroxy-3-methoxy-benzaldehyde]
(A) 5.77

(Q) How about this compound: CC(C)(C)OOC(C)(C)C [Di-tert-butyl peroxide]
(A) 5.96
